Please provide measured growth for the entries that follow.
System: K-562 leukemia
EXPERIMENTAL DETAILS: NCI-60 one-dose screen, 48 h (100 = growth as untreated, 0 = no growth, -100 = all killed)
APPLIED CONDITIONS: 10 µM unless noted
About 83,000 compounds went through this panel and 20% of them were active in at least one assay; those are over-represented in the sample as a whole.
Reply with just the number (in %).

Q. Give its growth value. Item: C=C(C)[C@@H]1C[C@@H]2Cc3cc(Cl)ccc3N1O2
A. 97.7

Q. Reported growth for COc1cc(C2CC(c3ccc4c(c3)OCO4)=NN2C=O)cc(OC)c1OC (stereo not given) : what is it?
A. 17.6

Q. Form field: reported growth of CC1=C(C#N)C(=O)NC(C)C1 (stereo not given)
A. 116

Q. Param item = CCOC(=O)c1ccc(NC(=O)N2CC(C)OC(C)C2)cc1 (stereo not given) ; retrieve measured growth.
A. 89.9

Q. Please give the measured growth for this compound: COC(=O)c1cccc2c1N(C)c1c(cccc1C(=O)OC)CC2
A. 121

Q. Recorded growth for O=C(O)c1nc(-c2ccccc2)oc1N1CCOCC1 , please?
A. 94

Q. Please give the measured growth for this compound: ClC(Cl)c1nc(-c2ccccc2)nc2cc(-c3ccccc3)nn12
A. 36.9

Q. May I ask what growth has been recorded for O=c1cc(Cc2ccc([N+](=O)[O-])cc2)[nH]c(=O)[nH]1 ?
A. 111

Q. Which growth value belongs to COc1ccc(-c2cn(-c3cccc(C(=O)/C=C/c4cc(OC)c(OC)c(OC)c4)c3)c(=O)[nH]2)cc1OC ?
A. 50.7

Q. Entry O=C(CN1CCN(c2cc3c(cc2F)c(=O)c(C(=O)N/N=C/c2ccccc2O)cn3C2CC2)CC1)N/N=C\c1ccccc1O : reported growth = ?
A. 8.3

====

Test system: A549/ATCC NSCLC
EXPERIMENTAL DETAILS: NCI-60 one-dose screen, 48 h
APPLIED CONDITIONS: 10 µM unless noted
Compounds without any hit were thinned out: in the full panel of roughly 83,000, 20% have a hit. The source made the active and inactive calls. Rule for the calls: active = growth percent below 10; inactive = the rest.
Respond with a class label; see T (active), F (inactive)

Q. Please indicate how the test categorized CCN(CC)CCCNc1nccc2ccc(Cl)cc12 .
A. F

Q. Please share the test call associated with N#Cc1c(-c2ccccc2)cc(-c2ccccc2)n(CC(=O)NO)c1=O .
A. F

Q. # fetch the recorded call for CCCCCCCCCCCCCCCCNC(=O)OC(C)C here
A. F

Q. Give the logged outcome of this assay for the following compound: Clc1cccc(-c2cc(-c3ccc4c(c3)OCCO4)[nH]n2)c1
A. F

Q. Could you kindly confirm the outcome this assay logged for O=c1c2sc3ncccc3c2nnn1-c1ccccc1 ?
A. F

Q. State the result this test recorded for COc1ccc(/C=C2\Oc3cc(OCCCN4CCCC4)ccc3C2=O)c(OC)c1 .
A. F

Q. Tell me the recorded outcome of this test for CN(C)c1oc(C2OC2c2ccccc2)nc1C#N (configuration not stated) .
A. F

Q. Hi, do you know how C=C[C@@H]1C[C@@H]2Cc3ccccc3N1O2 came out in this test?
A. F

Q. Returns: the outcome recorded for Cn1cnc2c(N3CCN(C(=O)OCc4ccc5c(Cl)cc(Cl)c(O)c5n4)CC3)nc(Cl)nc21 in this assay.
A. F

Q. Could you check what this test reported for O=c1ccn(C2CC(O)C(O)C(CO)O2)c(=O)[nH]1 (configuration not stated) ?
A. F

Q. Per the assay record, what outcome was assigned to O=S(=O)(NCCCNc1nccc(-n2ccc3cccnc32)n1)c1ccc(Br)cc1 ?
A. F

Q. Which outcome did this test record for the compound CCOC(=O)c1ccc(NC(=O)N2CC(C)OC(C)C2)cc1 (configuration not stated) ?
A. F

Q. Look up the recorded call for Oc1ccc2cc(Br)ccc2c1-c1c(O)ccc2cc(Br)ccc12 in this test.
A. F

Q. For Cc1ccc(S(=O)(=O)n2cc(C(=O)C(=O)Nc3ccncc3)c3ccccc32)cc1 , which call appears in the assay record?
A. F

Q. Hey, what did the test say about COC(=O)C(Sc1ccc(Cl)cc1)C1SC(=S)N(Cc2ccccc2)C1=O (configuration not stated) ?
A. F

Q. # outcome recorded in this test, key = COc1cc2c(c(OC)c1OC)-c1ccc(N)c(=O)cc1[C@@H](NC(C)=O)CC2
A. F

Q. Called result for COc1cc(Cn2cc3c(c2)-c2oncc2CC3)cc(OC)c1OC
A. F

Q. Kindly provide the recorded test outcome for the following compound: COc1ccc(Nc2nn3c(-c4ccccc4)cc(-c4ccccc4)nc3c2C(N)=O)c(OC)c1
A. F

Q. Recorded test call requested for COc1ccc(C2C=C(c3ccc(Cl)cc3)N=C3SC=C(C)N32)c(Br)c1 (configuration not stated)
A. F

Q. Recorded test call requested for CN(C)CCN1C(=O)c2ccc3c4c(ccc(c24)C1=O)C(=O)N(CCN=C=S)C3=O
A. T

Q. Record request — test call for CCOC(=O)c1ccc2c(c1)c1c(C)c3cccnc3c(C)c1n2C
A. F

Q. Could you kindly confirm the outcome this assay logged for O=C(Nc1ccncc1)C(=O)c1cn(S(=O)(=O)c2ccccc2F)c2ccccc12 ?
A. F

Q. Please let me know the test result on file for CC1=NC2=CC=CC3=NC(C(Cl)(Cl)Cl)=NC(=N1)N23 .
A. F

Q. Can you look up the reported call for Brc1cccc(-c2cc(-c3ccc4c(c3)OCCCO4)[nH]n2)c1 for me?
A. F

Q. # outcome recorded in this test, key = CC12CCC3C4(C)COC(c5ccccc5Cl)OC4CCC3(C)C1CC(C1=CCOC1=O)O2 (configuration not stated)
A. F

Q. Would you mind telling me which call this test gave O=C1C2(c3ccccc3)C(c3ccccc3)=C(c3ccccc3)C1(c1ccccc1)C1CC=CC12 (configuration not stated) ?
A. F

Q. Write down the call the test reported for this compound. Item: CCN(CC)c1ccc(CNc2ccnc3ccccc23)cc1
A. F

Q. Query: recorded result category for Cn1c(=O)cc(NC(=O)CN2CCN(c3cc4c(cc3F)c(=O)c(C(=O)O)cn4C3CC3)CC2)[nH]c1=O in this test
A. F

Q. # outcome recorded in this test, key = C=C(C)[C@@H]1C[C@@H]2Cc3cc(Cl)ccc3N1O2
A. F

Q. // return assay outcome for Cc1cc(N)n(S(=O)(=O)c2oc(-c3ccccc3)nc2C#N)n1
A. F

Q. What classification did COc1cc(-c2nn(-c3cccc(NC(=O)c4ccc(Cl)c(C(F)(F)F)c4)c3)cc2-c2ccncc2)ccc1Cl end up with in this test?
A. F

Q. Outcome logged for Cc1ccc(S(=O)(=O)NC(=O)n2cc(-c3ccncc3)c(-c3ccc(Cl)c(O)c3)n2)cc1 in this assay:
A. F

Q. Tell me the assay call for COc1ccc(C2C(C#N)=C(N)Oc3c2ccc2ccccc32)cc1 (configuration not stated) please.
A. F

Q. Hi, sorry to bother you, what did the test record for COc1cc(-c2nc(-c3nc4ccc(Cl)cc4[nH]3)cc3c2[nH]c2ccccc23)cc(OC)c1OC ?
A. F

Q. Name the outcome recorded for CCCCCCCCN(CCCCCCCC)CCCCCCNc1cc(OC)cc2cccnc12 in the assay.
A. F

Q. Could you kindly confirm the outcome this assay logged for Cc1ccc(S(=O)(=O)NCCNc2nccc(-c3c(-c4cccc(N)c4)nc4sccn34)n2)cc1 ?
A. F

Q. Just curious, what result did O=C(CCl)N(C1CCCCC1)C1CCCCC1 get here?
A. F

Q. Hi team, can someone confirm the assay call for c1ccc(Nc2nc(Nc3ccccc3)nc(Nc3ccccc3)n2)cc1 ?
A. F

Q. Please state the recorded outcome for this compound: Fc1ccccc1-c1nc(-c2nc3cc(Cl)c(Cl)cc3[nH]2)c2ccccn12
A. F

Q. Check the results log: what was the call for N#Cc1c(-c2ccccc2)nc(SCC(=O)N2CCN(c3ccccc3)CC2)[nH]c1=O ?
A. F

Q. Hey, what did the test say about CCN1CCN(c2nc(NNC(=O)c3ccccc3)nc(N3CCN(C(c4ccccc4)c4ccccc4)CC3)n2)CC1 ?
A. F

Q. Returns: the outcome recorded for OC(c1cc2cc(Br)ccc2c2cc(Br)ccc12)C1CCCCN1 (configuration not stated) in this assay.
A. T
